# Method Summary: Quantitative High-Throughput drug screen in 47 multiple myeloma cell lines against the NCATS MIPE library collection: L363_DSMZ cell viability assay (AID 1918984); note: nearly all actives have a fitted effect of over 40% in size
# Condition: L363 myeloma viability, CellTiter-Glo ATP luminescence, 48 h; series mostly up to 45.8 µM
Records with an inconclusive call do not appear. Activity calls are given as the source filed them. Calls come from the whole dose curve; as a rule, active = well fitted cell-killing curve with a large enough effect; inconclusive = small, poorly fitted or top-dose-only effect, or effect the other way; inactive = no such curve, though single readings can be large or run the other way.
Labels: active, inactive

[[record]]
line_notation = "COc1ccc(-c2oc3cc(OC)ccc3c2C(=O)c2ccc(C#N)cc2)cc1"
assigned_category = "active"

[[record]]
line_notation = "NCCc1ccc(O)c(O)c1"
assigned_category = "active"

[[record]]
line_notation = "COc1c(Cl)cc2c([nH]c3cnccc32)c1NC(=O)c1cccnc1C"
assigned_category = "active"

[[record]]
line_notation = "NC(=O)c1ccc(-c2nc(-c3ccc4c(c3)OCCO4)c(-c3ccccn3)[nH]2)cc1"
assigned_category = "active"

[[record]]
line_notation = "Cc1n[nH]c(C)c1Cc1sc2c(c1C(=O)N1C[C@H](O)CO1)c(=O)n(C)c(=O)n2CC(C)C"
assigned_category = "inactive"

[[record]]
line_notation = "OCCC#Cc1nc(-c2ccc(F)cc2)c(-c2ccncc2)n1CCCc1ccccc1"
assigned_category = "active"

[[record]]
line_notation = "Cn1cnc2c(F)c(Nc3ccc(Br)cc3Cl)c(C(=O)NOCCO)cc21"
assigned_category = "active"

[[record]]
line_notation = "Cc1cc(SCc2sc(-c3ccc(C(F)(F)F)cc3)nc2C)ccc1OCC(=O)O"
assigned_category = "inactive"

[[record]]
line_notation = "CN(C)C(=O)c1ccc(S(=O)(=O)c2ccc(NC(=O)[C@@](C)(O)C(F)(F)F)c(Cl)c2)cc1"
assigned_category = "active"

[[record]]
line_notation = "Nc1ccc(S(=O)(=O)Nc2ccnn2-c2ccccc2)cc1"
assigned_category = "inactive"


====

# Method Summary: qHTS of pediatric cancer cell lines to identify multiple opportunities for drug repurposing: Primary screen for NB1643 cells (AID 1347099); note: nearly all actives have a fitted effect of over 50% in size
# Condition: NB1643 neuroblastoma viability, CellTiter-Glo luminescence, 48 h; series mostly up to 46 µM
Inconclusive results are not listed. Activity calls are given as the source filed them. The call rests on the fitted dose curve; in most records, active means well fitted cell-killing curve with a large enough effect; inconclusive means small, poorly fitted or top-dose-only effect; inactive means no such curve, though single readings can be large or run the other way.
Outcomes: TRUE = active, FALSE = inactive

[[record]]
compound = "CCCC(CCC)C(=O)O"
assigned_category = "FALSE"

[[record]]
compound = "CNC(=O)c1ccc(N2C(=S)N(c3ccc(C#N)c(C(F)(F)F)c3)C(=O)C2(C)C)cc1F"
assigned_category = "FALSE"

[[record]]
compound = "CS(=O)(=O)c1cccc(CNc2nc(Nc3ccc4c(c3)CCC(=O)N4)ncc2C(F)(F)F)c1"
assigned_category = "TRUE"

[[record]]
compound = "Cc1cc([C@@H](C)Nc2ccccc2C(=O)O)c2nc(N3CCOCC3)cc(=O)n2c1"
assigned_category = "TRUE"

[[record]]
compound = "CC(C)(C)NCC(O)c1ccc(O)c(CO)c1 (stereo unspecified)"
assigned_category = "FALSE"

[[record]]
compound = "Oc1cccc(-c2nc(N3CCOCC3)c3oc4ncccc4c3n2)c1"
assigned_category = "TRUE"


====

# Method Summary: Quantitative high throughput screen for delayed death inhibitors of the malarial parasite plastid, 48 hour incubation (AID 488752); note: nearly all actives have a fitted effect of over 65% in size
# Condition: Plasmodium falciparum growth; series mostly up to 28.7 µM
Inconclusive results are not listed. Calls of active or inactive are those of the source. The call rests on the fitted dose curve; in most records, active means well fitted inhibition curve with a large enough effect; inconclusive means small, poorly fitted or top-dose-only effect, or effect the other way; inactive means flat fitted curve, though single readings scatter.
Labels: active, inactive

[[record]]
compound = "CCN(CC)CCCC(C)Nc1ccnc2cc(Cl)ccc12 (stereo not drawn)"
assigned_category = "active"

[[record]]
compound = "Nc1ccc(S(=O)(=O)Nc2ccnn2-c2ccccc2)cc1"
assigned_category = "inactive"

[[record]]
compound = "CC(C)(Sc1ccc(CCN(CCCCC2CCCCC2)C(=O)NC2CCCCC2)cc1)C(=O)O"
assigned_category = "inactive"

[[record]]
compound = "O=c1n(CCCN2CCN(c3cccc(Cl)c3)CC2)nc2ccccn12"
assigned_category = "inactive"

[[record]]
compound = "N=c1nc(N2CCCCC2)cc(N)n1O"
assigned_category = "inactive"

[[record]]
compound = "O=c1[nH]cnc2[nH]ncc12"
assigned_category = "inactive"

[[record]]
compound = "N[C@@H]1CONC1=O"
assigned_category = "inactive"

[[record]]
compound = "NCCc1ccc(O)c(O)c1"
assigned_category = "inactive"

[[record]]
compound = "CC(C)NCC(O)COc1ccc(COCCOC(C)C)cc1 (stereo not drawn)"
assigned_category = "inactive"

[[record]]
compound = "CCCCNc1cc(C(=O)O)cc(S(N)(=O)=O)c1Oc1ccccc1"
assigned_category = "inactive"

[[record]]
compound = "Clc1cccc(Cl)c1NC1=NCCN1"
assigned_category = "inactive"

[[record]]
compound = "CNC[C@H](O)c1cccc(O)c1"
assigned_category = "inactive"

[[record]]
compound = "CC(C)C[C@H](NC(=O)[C@@H](O)[C@H](N)Cc1ccccc1)C(=O)O"
assigned_category = "active"

